Consider the following compounds and their measured viability at 20 h readings.
- test-summary: Cell viability, MTT assay
- Format: cell-based, mouse
- Design: concentration or dose not given beside the values
- experimental-conditions: mouse, RAW 264.7 macrophage cells, RAW 264.7 macrophages, MTT assay; mean ± SEM; read-out: Cell Viability (% Control)
Numbers only; they are read as %.

Record excerpt, results attached:
INSERT INTO assay_data (compound, experimental_result) VALUES
  ('CC(C)C1=C(O)C(=O)C2=C(CCC3C(C)(C)[C@@H](O)CC[C@]23C)C1=O (stereo partly drawn)', 91.1),
  ('CC(O)c1ccc2c(c1)CCC1[C@](C)(C(=O)O)CCC[C@]21C (relative stereo)', 82.2);

We next turn to a different compound, shown below.
Q) Output viability at 20 h of O=c1c(O)c(-c2ccc(O)c(O)c2)oc2cc(O)cc(O)c12 [Quercetin, quercetin, reference compound]
A) 94.1
